Data provenance is BindingDB's records for patent US10377770.

# TESTED ON: RAF proto-oncogene serine/threonine-protein kinase [Y340E,Y341E] (Human, UniProt P04049, Y340E/Y341E)
# Sequence (P04049 whole entry Y340E/Y341E): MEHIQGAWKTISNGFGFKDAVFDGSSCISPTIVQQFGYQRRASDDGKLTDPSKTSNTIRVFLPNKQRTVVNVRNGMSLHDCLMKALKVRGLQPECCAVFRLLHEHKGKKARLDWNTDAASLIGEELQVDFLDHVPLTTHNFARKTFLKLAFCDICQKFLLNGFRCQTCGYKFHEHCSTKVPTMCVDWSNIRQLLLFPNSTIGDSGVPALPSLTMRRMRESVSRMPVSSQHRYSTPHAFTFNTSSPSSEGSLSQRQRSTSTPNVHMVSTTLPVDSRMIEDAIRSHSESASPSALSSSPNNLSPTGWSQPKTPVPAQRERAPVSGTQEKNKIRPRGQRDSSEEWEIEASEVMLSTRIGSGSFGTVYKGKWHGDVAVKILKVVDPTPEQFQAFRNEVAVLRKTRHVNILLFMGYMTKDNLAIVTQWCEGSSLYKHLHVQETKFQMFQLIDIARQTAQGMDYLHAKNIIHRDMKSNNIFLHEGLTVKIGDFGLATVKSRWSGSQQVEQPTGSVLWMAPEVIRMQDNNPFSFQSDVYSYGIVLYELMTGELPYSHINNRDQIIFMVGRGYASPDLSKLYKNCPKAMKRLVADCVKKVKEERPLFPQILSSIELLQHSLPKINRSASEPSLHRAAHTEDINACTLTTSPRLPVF
# ASSAY PROTOCOL: Biological Assays
Kindly supply the reported IC50 values for the records listed here.
Give bare numbers, in nM.

Answered cases to consult:
MOLECULE: Cc1ccc(NC(=O)c2ccnc(C(F)(F)F)c2)cc1-c1cnc2c(c1)N1CCOCC1C1(COC1)C2 (racemic) [US10377770, Example 153]
IC50 (nM): 0.005

MOLECULE: CCN1C(=O)[C@H]2COCCN2c2cc(-c3cc(NC(=O)c4ccnc(C(F)(F)F)c4)ccc3C)nnc21 [US10377770, Example 134]
IC50 (nM): 0.016

Below are 2 molecules. Give each one its IC50.
1. Cc1ccc(NC(=O)c2ccnc(C(F)(F)F)n2)cc1-c1ccc2c(c1)N1CCOC[C@H]1[C@](F)(CO)C2 [US10377770, Example 388]
2. Cc1ccc(NC(=O)c2ccnc(C(F)(F)F)c2)cc1-c1ccc2c(c1)N1CCOC[C@@H]1[C@@](CO)(CF)C2 [US10377770, Example 405]

result:
[0.4, 0.2]
